Reported Lignoceric acid (C24:0) is given for each of the following compounds.
- Tested on: Wistar (Crl:WI(Han)) rats
- measurement_protocol: Mass spectrometry-based plasma metabolite profiling of rats treated with known inducers of thyroid function impairment
- Type: in vivo, rat
- condition_parameters: male rats, mh14 (study day 14), ratio of group medians vs controls, Table 4
readout_label: Lignoceric acid (C24:0)

{"compound": "CCC(CC)Nc1c([N+](=O)[O-])cc(C)c(C)c1[N+](=O)[O-]", "readout_label": "Lignoceric acid (C24:0)", "meas_value": 2.93}
{"compound": "Cn1cc[nH]c1=S", "readout_label": "Lignoceric acid (C24:0)", "meas_value": 2.82}
{"compound": "Cc1cccc(C)c1N(Cn1cccn1)C(=O)CCl", "readout_label": "Lignoceric acid (C24:0)", "meas_value": 2.38}
{"compound": "CCC1(c2ccccc2)C(=O)NC(=O)NC1=O [Phenobarbital sodium]", "readout_label": "Lignoceric acid (C24:0)", "meas_value": 1.18}

====

Reported Cytosine is given for each of the following compounds.
- System: Wistar (Crl:WI(Han)) rats
- measurement_protocol: Mass spectrometry-based plasma metabolite profiling of rats treated with known inducers of thyroid function impairment
- Type: in vivo, rat
- condition_parameters: male rats, mh7 (study day 7), ratio of group medians vs controls, Table 4

{"compound": "Cc1cccc(C)c1N(Cn1cccn1)C(=O)CCl [Metazachlor]", "Cytosine": 0.64}
{"compound": "Cn1cc[nH]c1=S [Methimazole]", "Cytosine": 0.65}
{"compound": "CCC(CC)Nc1c([N+](=O)[O-])cc(C)c(C)c1[N+](=O)[O-] [Pendimethalin]", "Cytosine": 0.79}
{"compound": "CCC1(c2ccccc2)C(=O)NC(=O)NC1=O [Phenobarbital sodium]", "Cytosine": 1.06}

====

Reported Galactose, lipid fraction is given for each of the following molecules.
- Tested on: Wistar (Crl:WI(Han)) rats
- measurement_protocol: Mass spectrometry-based plasma metabolite profiling of rats treated with known inducers of thyroid function impairment
- Format: in vivo, rat
- condition_parameters: male rats, mh14 (study day 14), ratio of group medians vs controls, Table 4
- From the text: At the beginning of the study the animals were 10-11 weeks old. Each dose group in the studies consisted of five rats per sex, and was compared with controls (10 rats per sex). […] The dose levels were chosen to show the typical overt (high dose) and slight (low dose) toxicological symptoms of the substances as described in the literature or in BASF internal study reports. […]
readout_label: Galactose, lipid fraction

{"molecule": "CCC1(c2ccccc2)C(=O)NC(=O)NC1=O [Phenobarbital sodium]", "meas_value": 1.18}
{"molecule": "Cn1cc[nH]c1=S", "meas_value": 1.46}
{"molecule": "Cc1cccc(C)c1N(Cn1cccn1)C(=O)CCl", "meas_value": 2.27}
{"molecule": "CCC(CC)Nc1c([N+](=O)[O-])cc(C)c(C)c1[N+](=O)[O-]", "meas_value": 2.03}

====

- System: Wistar (Crl:WI(Han)) rats
- measurement_protocol: Mass spectrometry-based plasma metabolite profiling of rats treated with known inducers of thyroid function impairment
- Assay type: in vivo, rat
- condition_parameters: male rats, mh7 (study day 7), ratio of group medians vs controls, Table 4
Reported Cholesterol is given for each of the following compounds.
readout_label: Cholesterol

{"compound": "Cn1cc[nH]c1=S [Methimazole]", "target_system": "Wistar (Crl:WI(Han)) rats", "meas_value": 1.69}
{"compound": "CCC1(c2ccccc2)C(=O)NC(=O)NC1=O [Phenobarbital sodium]", "target_system": "Wistar (Crl:WI(Han)) rats", "meas_value": 1.16}
{"compound": "CCC(CC)Nc1c([N+](=O)[O-])cc(C)c(C)c1[N+](=O)[O-] [Pendimethalin]", "target_system": "Wistar (Crl:WI(Han)) rats", "meas_value": 1.67}
{"compound": "Cc1cccc(C)c1N(Cn1cccn1)C(=O)CCl [Metazachlor]", "target_system": "Wistar (Crl:WI(Han)) rats", "meas_value": 1.71}

====

- Tested on: Wistar (Crl:WI(Han)) rats
- measurement_protocol: Mass spectrometry-based plasma metabolite profiling of rats treated with known inducers of thyroid function impairment
- Format: in vivo, rat
- condition_parameters: male rats, mh28 (study day 28), ratio of group medians vs controls, Table 4
readout_label: Glycerol phosphate

{"molecule": "CCC1(c2ccccc2)C(=O)NC(=O)NC1=O [Phenobarbital sodium]", "meas_value": 1.05}
{"molecule": "Cn1cc[nH]c1=S", "meas_value": 1.46}
{"molecule": "CCC(CC)Nc1c([N+](=O)[O-])cc(C)c(C)c1[N+](=O)[O-]", "meas_value": 2.34}
{"molecule": "Cc1cccc(C)c1N(Cn1cccn1)C(=O)CCl", "meas_value": 2.36}

====

- System: Wistar (Crl:WI(Han)) rats
- measurement_protocol: Mass spectrometry-based plasma metabolite profiling of rats treated with known inducers of thyroid function impairment
- Assay type: in vivo, rat
- condition_parameters: male rats, mh14 (study day 14), ratio of group medians vs controls, Table 4

{"compound": "Cn1cc[nH]c1=S [Methimazole]", "Cholesterol": 1.93}
{"compound": "Cc1cccc(C)c1N(Cn1cccn1)C(=O)CCl [Metazachlor]", "Cholesterol": 2.15}
{"compound": "CCC(CC)Nc1c([N+](=O)[O-])cc(C)c(C)c1[N+](=O)[O-] [Pendimethalin]", "Cholesterol": 2.03}
{"compound": "CCC1(c2ccccc2)C(=O)NC(=O)NC1=O [Phenobarbital sodium]", "Cholesterol": 1.09}

====

- System: Wistar (Crl:WI(Han)) rats
- measurement_protocol: Mass spectrometry-based plasma metabolite profiling of rats treated with known inducers of thyroid function impairment
- Assay type: in vivo, rat
- condition_parameters: male rats, mh7 (study day 7), ratio of group medians vs controls, Table 4
readout_label: Behenic acid (C22:0)

{"molecule": "Cc1cccc(C)c1N(Cn1cccn1)C(=O)CCl", "target_system": "Wistar (Crl:WI(Han)) rats", "readout_label": "Behenic acid (C22:0)", "meas_value": 1.92}
{"molecule": "CCC(CC)Nc1c([N+](=O)[O-])cc(C)c(C)c1[N+](=O)[O-]", "target_system": "Wistar (Crl:WI(Han)) rats", "readout_label": "Behenic acid (C22:0)", "meas_value": 1.94}
{"molecule": "CCC1(c2ccccc2)C(=O)NC(=O)NC1=O [Phenobarbital sodium]", "target_system": "Wistar (Crl:WI(Han)) rats", "readout_label": "Behenic acid (C22:0)", "meas_value": 1.03}
{"molecule": "Cn1cc[nH]c1=S", "target_system": "Wistar (Crl:WI(Han)) rats", "readout_label": "Behenic acid (C22:0)", "meas_value": 2.02}

====

- Test system: Wistar (Crl:WI(Han)) rats
- measurement_protocol: Mass spectrometry-based plasma metabolite profiling of rats treated with known inducers of thyroid function impairment
- Assay type: in vivo, rat
- condition_parameters: male rats, mh28 (study day 28), ratio of group medians vs controls, Table 4
Reported Sphingomyelin (d18:1, C16:0) is given for each of the following molecules.
readout_label: Sphingomyelin (d18:1, C16:0)

{"molecule": "CCC(CC)Nc1c([N+](=O)[O-])cc(C)c(C)c1[N+](=O)[O-]", "target_system": "Wistar (Crl:WI(Han)) rats", "meas_value": 2.03}
{"molecule": "CCC1(c2ccccc2)C(=O)NC(=O)NC1=O [Phenobarbital sodium]", "target_system": "Wistar (Crl:WI(Han)) rats", "meas_value": 1.44}
{"molecule": "Cn1cc[nH]c1=S", "target_system": "Wistar (Crl:WI(Han)) rats", "meas_value": 1.92}
{"molecule": "Cc1cccc(C)c1N(Cn1cccn1)C(=O)CCl", "target_system": "Wistar (Crl:WI(Han)) rats", "meas_value": 2.32}

====

Reported Behenic acid (C22:0) is given for each of the following molecules.
- Tested on: Wistar (Crl:WI(Han)) rats
- measurement_protocol: Mass spectrometry-based plasma metabolite profiling of rats treated with known inducers of thyroid function impairment
- Assay type: in vivo, rat
- condition_parameters: male rats, mh28 (study day 28), ratio of group medians vs controls, Table 4
readout_label: Behenic acid (C22:0)

{"molecule": "CCC1(c2ccccc2)C(=O)NC(=O)NC1=O [Phenobarbital sodium]", "readout_label": "Behenic acid (C22:0)", "meas_value": 1.21}
{"molecule": "CCC(CC)Nc1c([N+](=O)[O-])cc(C)c(C)c1[N+](=O)[O-] [Pendimethalin]", "readout_label": "Behenic acid (C22:0)", "meas_value": 1.79}
{"molecule": "Cc1cccc(C)c1N(Cn1cccn1)C(=O)CCl [Metazachlor]", "readout_label": "Behenic acid (C22:0)", "meas_value": 2.05}
{"molecule": "Cn1cc[nH]c1=S [Methimazole]", "readout_label": "Behenic acid (C22:0)", "meas_value": 3.01}

====

- System: Wistar (Crl:WI(Han)) rats
- measurement_protocol: Mass spectrometry-based plasma metabolite profiling of rats treated with known inducers of thyroid function impairment
- Format: in vivo, rat
- condition_parameters: male rats, mh28 (study day 28), ratio of group medians vs controls, Table 4
Reported Citrate is given for each of the following compounds.

{"compound": "CCC(CC)Nc1c([N+](=O)[O-])cc(C)c(C)c1[N+](=O)[O-] [Pendimethalin]", "Citrate": 0.87}
{"compound": "Cn1cc[nH]c1=S [Methimazole]", "Citrate": 0.73}
{"compound": "CCC1(c2ccccc2)C(=O)NC(=O)NC1=O [Phenobarbital sodium]", "Citrate": 0.96}
{"compound": "Cc1cccc(C)c1N(Cn1cccn1)C(=O)CCl [Metazachlor]", "Citrate": 1.08}

This collection of values is drawn from patent US20120132797A1.
